So I've got a bunch of binders here, and I need their raw competing-Ab binding signal values.
study.system: T1, human Sdc2 (human, UniProt P34741 19-144, limits assumed)
T1 construct: Antigen of the Octet tandem binning, loaded on biosensors at 100 nM; also called huSdc2; hSdc2
T1 sequence (P34741 19-144 limits assumed): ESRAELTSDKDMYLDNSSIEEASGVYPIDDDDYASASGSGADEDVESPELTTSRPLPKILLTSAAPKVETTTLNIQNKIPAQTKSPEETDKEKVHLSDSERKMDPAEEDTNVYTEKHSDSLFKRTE
test.summary: Octet tandem binning; saturating Ab f7 19844-R3-P3-A12
One number for each entry.

{"binder": "R4M-P3-E06 (antibody, human IgG1, kappa, V domains shown, human IgG1 kappa from the phage campaign) VH: EVQLVESGGGVVQPGGSLRLSCAASGFTFSNYGMHWVRQAPGKGLEWVATISYDGTKKYYPDSVRGRFTISRDNSENMLYLQMDSLRLEDTAVIYCAKDLVSGSRYGFAFDSWGPGTLVTVSS VL: DIVMTQSPLSLPVTLGQPASISCRSSQSLVHSDGNTYLNWFQQRPGQSPRRLIYKVSNRDSGVPDRFSGTGSGTDFTLKISRVEADDVGVYYCMQGTHWPPIFGQGTRLEIKR", "data.value": 0.0799}

Next, consider the following binder.
### Prompt Tell me its raw competing-Ab binding signal given R3-P3-E09 (antibody, human IgG1, kappa, V domains shown, human IgG1 kappa from the phage campaign) VH: EVQLVETGGGVVQPGRSLTLSCGASEFTFSNYAMHWVRQAPGKGLEWVAVISYDGTKKYYGDSVKGRFTISRENIKNTLYLQMNSLRSEDTAVYYCARDVGKGVTATGTFDIWGQGTMVTVSS VL: AIRMTQSPSSLSASVGDRVTITCRASQGIGSYLAWFQQKPGEAPKSLIIDATRLKSGVPSRFSGSGSGTEFALTISSLRPEDFATYYCQQYNVSPLTFGGGTKVEIKR as the entry.
### Response -0.135
